# target-or-system: EGR1 DB_WT (Zif268 DNA-binding domain) (human, UniProt P18146 331-430)
# protocol: ITC
measure-name: Kd (nM)
Give the value, in units of nM, as a plain number.

Bench note: what Kd did ZRE duplex (15-mer) (dsDNA) DNA 1: ATAGCGTGGGCGTTT DNA 2: AAACGCCCACGCTAT show?
266
